The measurements presented in this section are drawn from paper PMC10298530.

MEASUREMENT_KIND: melting point (°C)
Kindly answer with a numeric value in °C, unit omitted.

Solved entries:
CC(=O)C1CC[C@]2(C)C(CCC3C4C(C(C)C)CC[C@]4(COC(=O)c4ccccc4)CC[C@]32C)[C@@]1(C)CCC#N (some centres unmarked); 185.8
C=C(CBr)C1CC[C@]2(C)C(CCC3C4C(C(C)C)CC[C@]4(C(=O)OC)CC[C@]32C)[C@@]1(C)CCC#N (some centres unmarked); 72.7
CC(C)C1CC[C@]2(CO)CC[C@]3(C)C(CCC4[C@@]5(C)CC(C#N)=CC(=O)C5CC[C@]43C)C12 (some centres unmarked); 121
COC(=O)[C@]12CCC(C(C)C)C1C1CCC3[C@@](C)(CCC#N)C(C(C)=O)CC[C@@]3(C)[C@]1(C)CC2 (some centres unmarked); 177.2
COC(=O)[C@]12CCC(C(C)C)C1C1CCC3[C@@](C)(CCC#N)C(C(=O)CBr)CC[C@@]3(C)[C@]1(C)CC2 (some centres unmarked); 124.4

Report melting point for C=C1C=C(C#N)C[C@@]2(C)C1CC[C@]1(C)C2CCC2C3C(C(C)C)CC[C@]3(C(=O)OC)CC[C@]21C (some centres unmarked) please. 76.6
